# Test system: Danio rerio larvae (5 dpf)
# TEST_SUMMARY: difference in startle response vs DMSO (percentage points); higher = stronger startle than DMSO
# ASSAY_CONTEXT: 10 µM; exposure time 6 h
Where a name gives a salt, the structure may show the parent alone.
Please respond with reported difference in startle response for every item in the list.

COMPOUND: CCN1CCN(Cc2ccc(Nc3ncc(F)c(-c4cc(F)c5nc(C)n(C(C)C)c5c4)n3)nc2)CC1
RECORDED_ENDPOINT: difference in startle response
REPORTED_RESULT: 1.59
--
COMPOUND: CN1C(CCl)Nc2cc(Cl)c(S(N)(=O)=O)cc2S1(=O)=O (stereo unspecified) [Methyclothiazide]
RECORDED_ENDPOINT: difference in startle response
REPORTED_RESULT: 4.44
--
COMPOUND: CC(C)(S)[C@@H](N)C(=O)O
RECORDED_ENDPOINT: difference in startle response
REPORTED_RESULT: 3.43
--
COMPOUND: CN/C(=N\CCSCc1nc[nH]c1C)NC#N
RECORDED_ENDPOINT: difference in startle response
REPORTED_RESULT: 2.86
--
COMPOUND: CCCCCOC(=O)Nc1nc(=O)n([C@@H]2O[C@H](C)[C@@H](O)[C@H]2O)cc1F
RECORDED_ENDPOINT: difference in startle response
REPORTED_RESULT: -2.24

For every listed record, write down its difference in startle response.
1. N#C[C@@H]1C[C@@H]2C[C@@H]2N1C(=O)[C@@H](N)C12CC3CC(CC(O)(C3)C1)C2 [Saxagliptin (hydrochloride)]
2. C/C(O)=C(\C#N)C(=O)Nc1ccc(C(F)(F)F)cc1
3. CC(=O)[C@H]1CC[C@H]2[C@@H]3CCC4=CC(=O)CC[C@]4(C)[C@H]3CC[C@]12C
4. OC(c1cc(C(F)(F)F)nc2c(C(F)(F)F)cccc12)C1CCCCN1 (stereo unspecified) [Mefloquine (hydrochloride)]
5. CC(=O)Nc1nnc(S(N)(=O)=O)s1 [Acetazolamide]
6. C[C@]12CC[C@@H]3c4ccc(OS(=O)(=O)O)cc4CC[C@H]3[C@@H]1CCC2=O [Estropipate]
7. Cc1ccc(/C(=C\CN2CCCC2)c2cccc(/C=C/C(=O)O)n2)cc1

OUTPUT:
1. -1.75
2. 1.5
3. -7.45
4. -3.76
5. 8.72
6. -3.42
7. -0.645

For every listed record, write down its difference in startle response.
1. CN(C)[C@@H]1C(O)=C(C(N)=O)C(=O)[C@@]2(O)C(O)=C3C(=O)c4c(O)cccc4[C@@](C)(O)[C@H]3[C@H](O)[C@@H]12
2. CC1(C)O[C@@H]2C[C@H]3[C@@H]4CCC5=CC(=O)CC[C@]5(C)[C@@]4(F)[C@@H](O)C[C@]3(C)[C@]2(C(=O)CCl)O1 [Halcinonide]

OUTPUT:
[-1.21, 2.79]

For every listed record, write down its difference in startle response.
1. COc1ccc([C@@H]2Sc3ccccc3N(CCN(C)C)C(=O)[C@@H]2OC(C)=O)cc1 [Diltiazem (hydrochloride)]
2. CCCc1nc2c(C)cc(-c3nc4ccccc4n3C)cc2n1Cc1ccc(-c2ccccc2C(=O)O)cc1

OUTPUT:
1: -1.93; 2: -11.8
